target: CYP11B2 (Homo sapiens); test: Inhibition of aldosterone production in V79-B2 cells expressing human CYP11B2 (ELISA); assay type: cell-based; parameters: expressed in transfected cells; host or cells: Chinese hamster lung-derived fibroblast V79 cells (V79-B2); conditions: IC50 against cortisol production/IC50 against aldosterone production; selectivity factor for CYP11B2
assayEndpoint: Selectivity factor
No unit in the answer, please; the number alone is enough.

The examples below pair each entry with its known result.
O=C1CCc2cc(-c3cncc(I)c3)cc3c2N1CC3 [PAY21] ... 26.09
COC(=O)c1cncn1[C@H](C)c1ccc(I)cc1 [IMTO, iodometomidate, reference compound] ... 0.93

[Q] Record request: Selectivity factor value, item O=C1CCc2cc(-c3cncc(OCCF)c3)cc3c2N1CCC3 [PAY27]
[A] 81.42

[Q] What value of Selectivity factor has been recorded for this entry: O=C1CCc2cc(-c3cncc(OCCF)c3)cc3c2N1CC3 [PAY54]
[A] 55.49

[Q] Sample O=C1CCc2cc(-c3cncc(I)c3)cc3c2N1CCC3 [PAY15] — what was its Selectivity factor?
[A] 223.95

====

target: human CYP11B1 (Homo sapiens, UniProt P15538); assay: Inhibition of cortisol production in V79-B1 cells expressing human CYP11B1 (ELISA); settings: 11-deoxycortisol 100 nmol/L, 1 hour, unlabeled form, read-out: IC50 against cortisol production
Sequence (P15538 25-503): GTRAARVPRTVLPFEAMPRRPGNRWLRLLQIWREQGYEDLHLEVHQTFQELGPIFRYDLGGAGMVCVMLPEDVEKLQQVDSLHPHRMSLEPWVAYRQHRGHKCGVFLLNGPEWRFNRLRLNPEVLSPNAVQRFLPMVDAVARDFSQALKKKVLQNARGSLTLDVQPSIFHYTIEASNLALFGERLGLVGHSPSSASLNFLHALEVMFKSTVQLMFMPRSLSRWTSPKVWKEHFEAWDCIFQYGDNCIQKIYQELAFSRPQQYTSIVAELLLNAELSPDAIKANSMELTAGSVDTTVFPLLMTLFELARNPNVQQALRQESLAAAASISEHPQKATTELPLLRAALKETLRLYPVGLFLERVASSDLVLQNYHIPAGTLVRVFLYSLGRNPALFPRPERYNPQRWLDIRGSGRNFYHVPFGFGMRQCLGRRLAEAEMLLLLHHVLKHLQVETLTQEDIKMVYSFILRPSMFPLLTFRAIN
Rule: IC50 below 20 nM gives Criterion met. Equal to or above 20 nM gives Criterion not met.

Consider the worked cases shown below.
O=C1CCc2cc(-c3cncc(I)c3)cc3c2N1CCC3 ... Criterion not met
O=C1CCc2cc(-c3cncc(I)c3)cc3c2N1CC3 ... Criterion not met
COC(=O)c1cncn1[C@H](C)c1ccc(I)cc1 [IMTO, iodometomidate, reference compound] ... Criterion met
O=C1CCc2cc(-c3cncc(OCCF)c3)cc3c2N1CC3 ... Criterion met

Consider now this further compound.
[Q] Quick check: does `O=C1CCc2cc(-c3cncc(OCCF)c3)cc3c2N1CCC3` have IC50 under 20 nM?
[A] Criterion not met

====

pIC50 listing for selected compounds.
Molecular target: CYP11B2 (Homo sapiens)
Sequence (P19099 25-503): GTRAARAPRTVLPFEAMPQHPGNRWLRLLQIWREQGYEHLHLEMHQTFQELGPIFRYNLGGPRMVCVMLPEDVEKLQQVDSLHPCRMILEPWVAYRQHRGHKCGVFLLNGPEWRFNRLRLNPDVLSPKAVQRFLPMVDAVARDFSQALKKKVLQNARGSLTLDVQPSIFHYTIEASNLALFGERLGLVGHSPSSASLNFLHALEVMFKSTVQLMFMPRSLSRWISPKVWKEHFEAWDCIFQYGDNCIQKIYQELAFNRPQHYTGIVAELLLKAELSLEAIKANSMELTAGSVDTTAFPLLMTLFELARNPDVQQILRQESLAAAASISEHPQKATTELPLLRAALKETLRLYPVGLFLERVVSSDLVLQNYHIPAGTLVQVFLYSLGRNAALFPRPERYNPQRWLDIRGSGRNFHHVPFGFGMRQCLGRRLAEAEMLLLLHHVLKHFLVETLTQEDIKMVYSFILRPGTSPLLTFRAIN
Assay: Inhibition of aldosterone production in V79-B2 cells expressing human CYP11B2 (ELISA)
Conditions: V79-B2 cells, corticosterone 100 nmol/L, 4 hours, unlabeled form; read-out: IC50 against aldosterone production
Worth noting: pIC50 values are minus log10 of concentrations stated in mol/L.

O=C1CCc2cc(-c3cncc(OCCF)c3)cc3c2N1CCC3 ... 9.01
O=C1CCc2cc(-c3cncc(I)c3)cc3c2N1CCC3 ... 9.20
COC(=O)c1cncn1[C@H](C)c1ccc(I)cc1 [IMTO, iodometomidate, reference compound] ... 9.85
O=C1CCc2cc(-c3cncc(I)c3)cc3c2N1CC3 ... 9.09

Now consider a different compound.
[Q] Report pIC50 for `O=C1CCc2cc(-c3cncc(OCCF)c3)cc3c2N1CC3` please.
[A] 9.62
